The measured values listed here are drawn from paper PMC10103840.

# Experiment description: In vitro Transwell permeability assay across BeWo b30 cell layer
# Conditions: human
Field: recovery at 60 min, 5 μM. Provide a value for each of the compounds that follow.
Answer format: numeric, % implied, no suffix.

Request: So what's the measured recovery at 60 min, 5 μM for this one? CC1=C2[C@H](/C=C(\C)C(=O)O)CC[C@@H](C)[C@H]2CC1
Response: 73.7

Request: Which recovery at 60 min, 5 μM reading was recorded for the compound Cc1cc(=O)n(-c2ccccc2)n1C [Antipyrine, antipyrine, reference compound] ?
Response: 81.9

###

# Experiment description: in vitro
# Conditions: human, pH 7.2
Endpoint: recovery at 240 min, 5 μM (%)
// units = %; emit number, no label

Request: Value lookup for recovery at 240 min, 5 μM; key = Cc1cc(O)c2c(=O)c3c(O)cc(O)c4c5c(O)cc(O)c6c(=O)c7c(O)cc(C)c8c1c2c(c34)c(c78)c65
Response: 54

Request: Please give the measured recovery at 240 min, 5 μM for this compound: Cc1cc(=O)n(-c2ccccc2)n1C [Antipyrine, antipyrine, reference compound]
Response: 79.2

Request: What recovery at 240 min, 5 μM value was documented for this compound, CC1=C2[C@H](/C=C(\C)C(=O)O)CC[C@@H](C)[C@H]2CC1 ?
Response: 91.5

###

# Experiment description: in vitro
# Conditions: human
Endpoint: Papp at 60 min, 5 μM (×10⁻⁶ cm/s)
Lab book: enter the figure in ×10⁻⁶ cm/s, no units written.

Request: Name the recorded Papp at 60 min, 5 μM for Cc1cc(=O)n(-c2ccccc2)n1C [Antipyrine, antipyrine, reference compound] .
Response: 28
